System: ACHN
Experimental details: NCI tumour cell line growth inhibition, 48 h
Activity calls are given as the source filed them. No stated cut-off is given here; in the data, active = GI50 up to about 1.1 µM and inactive = higher. Where a SMILES comes first, the peptide text is derived from it. [ ]: non-standard residue; d: D form. The star is where a group is joined. Phe(2-OMe) = COc1ccccc1C[CH](N)C(=O)O; 2Nal = N[CH](Cc1ccc2ccccc2c1)C(=O)O; Cbz = O=C(OCc1ccccc1)*; OBn = c1ccc(CO*)cc1
Classes used: YES (active), NO (inactive)

# Compound, Assigned category
data = [
    ("Cc1c(C)c(C)c(-n2c(=O)n(C)c(=O)n2C(C)(C)C)c(C)c1C", "NO"),
    ("Cc1nc2c(=O)[nH]ncc2[nH]1", "NO"),
    ("CC(=O)O[C@]12CCC[C@H]1C1(O)C(O)CCC[C@H]12 (some centres undefined)", "NO"),
    ("Cn1c(=O)c2[nH]cnc2n(CC(=O)O)c1=O", "NO"),
    ("CC(NC(=O)C(N)Cc1ccccc1)C(=O)NC(Cc1ccc(O)cc1)C(=O)NC(Cc1c[nH]c2ccccc12)C(=O)NC(CCCCN)C(=O)NC(C(=O)NC(C)C(=O)NC(Cc1ccc2ccccc2c1)C(N)=O)C(C)C (centres undefined) (H-FAYWKVA[2Nal]-NH2; configuration not given here)", "NO"),
    ("C[C@]12CC[C@@H]3c4ccc(O)cc4CC[C@H]3[C@@H]1CC[C@@H]2OP(=O)(O)O", "NO"),
    ("OCCN=C1c2ccccc2C2C(c3ccccc31)C1c3ccccc3C(=NCCO)c3ccccc3C21 (centres undefined)", "NO"),
    ("C/C=C(/CCCCNCCCC)[Si](C)(C)C", "NO"),
    ("O=P(O)(O)C1CCCC(P(=O)(O)O)N1 (centres undefined)", "NO"),
    ("CCc1cccc(C(C)C)c1NC(=O)C(=O)C1C(=O)NC(=O)NC1=O", "NO"),
    ("CC(OC(C)(C)C)[C@H](NC(=O)OCC(Cl)(Cl)Cl)C(=O)O (some centres undefined)", "NO"),
    ("c1nc(N2CC2)c2cnn(C3CCCCO3)c2n1 (centres undefined)", "NO"),
    ("CCOC(=O)C(=O)CC1=Nc2ccccc2SC(c2cccc(C)c2)C1 (centres undefined)", "NO"),
    ("Cc1cc(Cl)ccc1NC(=O)C(=O)Cc1ccc([N+](=O)[O-])c([N+](=O)[O-])c1CC(=O)C(=O)Nc1ccc(Cl)cc1C", "NO"),
    ("C#C[C@@]1(O)CCCC2=CC3(CC[C@]21C)SCCS3", "NO"),
    ("O=[N+]([O-])C(C(Cl)=C(Cl)Cl)=C(n1cncn1)n1cncn1", "NO"),
    ("Nc1nc(NCCO)c(N=O)c(=O)[nH]1", "NO"),
    ("COC(=O)C(Cc1ccccc1OC)NC(=O)C(CC(=O)OCc1ccccc1)NC(=O)OCc1ccccc1 (centres undefined) (Cbz-Asp(OBn)-[Phe(2-OMe)]-OMe; configuration not given here)", "NO"),
    ("CC(C)C[C@H](NC(=O)CCc1cccc2ccccc12)B(O)O", "YES"),
]

====

Tested on: SW-620
Experimental details: NCI tumour cell line growth inhibition, 48 h
Activity calls are given as the source filed them. Rule as the data show it: active = GI50 up to about 1.1 µM and inactive = higher.
The entries below are paired with their reported GI50.

# Compound, GI50
rows = [
    ("CC(C)=NNC(=S)NC12CC3CC(CC(C3)C1)C2", "> 100 µM (inactive)"),
    ("CC1OC(OC2C(O)COC(OC3C(C)OC(OC4C(OC(=O)[C@]56CCC(C)(C)C[C@@H]5C5=CCC7[C@@]8(C)C[C@H](O)[C@H](OC9OC(CO)C(O)C(OC%10OC(CO)C(O)C(O)C%10O)C9O)[C@@](C)(CO)[C@@H]8CC[C@@]7(C)[C@]5(C)CC6)OCC(O)C4O)C(O)C3OC3OCC(O)(CO)C3O)C2O)C(O)C(O)C1O (stereo not given in full)", "6.43 µM (inactive)"),
    ("CC1C(c2ccc3c(c2)OCO3)c2cc3c(cc2OC1N1CCOCC1)OCO3 (stereo not given)", "25.9 µM (inactive)"),
    ("O=C1NC2=C(CCCC/C2=N\\O)C12CCCCC2", "> 100 µM (inactive)"),
    ("CCN1CCC(O)(/C=C/c2cccc(C)c2)C(C(=O)/C=C/c2cccc(C)c2)C1 (stereo not given)", "2.29 µM (inactive)"),
    ("COc1cc(CNc2nc3ccccc3nc2C(=O)O)cc(OC)c1OC", "> 100 µM (inactive)"),
    ("Cc1ccc(S(=O)(=O)c2c(N)c3nc4ccccc4n3c3nc4ccccc4nc23)cc1", "> 100 µM (inactive)"),
    ("O=c1[nH]nc(Cc2ccccc2)n1/N=C/c1cccs1", "> 100 µM (inactive)"),
    ("O=C1c2ccccc2CC12Cc1ccccc1C2", "> 100 µM (inactive)"),
    ("CNC(=O)OCc1c(COC(=O)NC)c(-c2ccc(Cl)c(Cl)c2)n2c1SCC2", "10.8 µM (inactive)"),
    ("C[C@]12CCC(=O)C=C1CC[C@@H]1C2CC[C@]2(C)c3nn(-c4ccc(F)cc4)nc3CC12 (stereo not given in full)", "> 100 µM (inactive)"),
    ("NS(=O)(=O)c1ccc(NC(=O)CC(=O)Nc2ccc(S(N)(=O)=O)cc2)cc1", "> 100 µM (inactive)"),
    ("NCCCCNCCCN1CCOC1=O", "> 100 µM (inactive)"),
    ("COc1ccc(OC)c([N+](=O)[O-])c1-c1nc2sc(C)cn2c1/C=N/N=C(N)N", "29.9 µM (inactive)"),
    ("CCOC(=O)C(=O)CC1=Nc2ccccc2SC(c2cccc(C)c2)C1 (stereo not given)", "25.6 µM (inactive)"),
    ("O=c1cc(CNC2CC3CCC2C3)[nH]c(=O)[nH]1 (stereo not given)", "> 100 µM (inactive)"),
    ("CC(C)c1ccc2c(c1)/C(=C1/Nc3ccccc3C1=O)C(=O)N2", "43.3 µM (inactive)"),
    ("C=CCN(CC=C)Cn1c(=S)sc2ccccc21", "48.8 µM (inactive)"),
    ("Cc1ccc2ccc(O)cc2c1", "37 µM (inactive)"),
    ("OCCN(C1=NCCN1)/[N+](=C/c1ccc(Cl)cc1)[CH-]c1ccc(Cl)cc1", "> 100 µM (inactive)"),
]
